- PROTOCOL_TEXT: Toxicokinetics test in the satellite groups (UPLC-MS/MS of rat plasma)
- Assay type: in vivo
- CONDITION_SET: male, SD, rat, plasma, po, male rats, Day 1, middle dose (berberine 24.03, epiberberine 2.47, coptisine 2.47, palmatine 6.09, jatrorrhizine 0.93, columbamine 1.98 mg/kg); read-out: Cmax mean
- Method: SD rats (5 ~ 6 weeks, 3/group/sex) were randomly allocated to three treatment groups and given the same dosage as those in the repeated toxicity experiment for 28 days. […] Carbamazepine was chosen as the internal standard (IS). The blood samples were centrifuged to obtain plasma. Then, 300 μL of acetonitrile containing 40 ng of IS was added to 100 μL of plasma. After vortexing for 1 min, the mixture was centrifuged at 17,000 rpm for 15 min at 4 °C. […]
Measured Cmax, listed per entry.
MEASURED_QUANTITY: Cmax (ng/mL)

[[record]]
smiles_str = "COc1cc2c(cc1O)-c1cc3ccc(OC)c(OC)c3c[n+]1CC2"
measured = 41.7

[[record]]
smiles_str = "COc1cc2c(cc1O)CC[n+]1cc3c(OC)c(OC)ccc3cc1-2"
measured = 15.4


###

- PROTOCOL_TEXT: Toxicokinetics test in the satellite groups (UPLC-MS/MS of rat plasma)
- Format: in vivo
- CONDITION_SET: female, SD, rat, plasma, po, 0.4 g/kg, female rats, Day 28, low dose TAZF 0.4 g/kg by gavage; read-out: AUC0-t
Measured AUC(0-t), listed per entry.
MEASURED_QUANTITY: AUC(0-t) (ng·h/mL)

[[record]]
smiles_str = "COc1cc2c(cc1O)CC[n+]1cc3c(OC)c(OC)ccc3cc1-2"
measured_quantity = "AUC(0-t)"
measured = 23.9

[[record]]
smiles_str = "COc1cc2c(cc1O)-c1cc3ccc(OC)c(OC)c3c[n+]1CC2"
measured_quantity = "AUC(0-t)"
measured = 68.1

[[record]]
smiles_str = "COc1ccc2cc3[n+](cc2c1OC)CCc1cc2c(cc1-3)OCO2"
measured_quantity = "AUC(0-t)"
measured = 838


###

Measured half-life, listed per entry.
- PROTOCOL_TEXT: Toxicokinetics test in the satellite groups (UPLC-MS/MS of rat plasma)
- Format: in vivo
- CONDITION_SET: male, SD, rat, plasma, po, male rats, Day 1, lowest dose (berberine 8.01, epiberberine 0.82, coptisine 1.38, palmatine 2.03, jatrorrhizine 0.31, columbamine 0.66 mg/kg); read-out: T1/2 mean (converted)
MEASURED_QUANTITY: half-life (h)

[[record]]
compound = "COc1cc2c(cc1O)-c1cc3ccc(OC)c(OC)c3c[n+]1CC2 [columbamine]"
u = "h"
measured = 47.8

[[record]]
compound = "COc1cc2c(cc1O)CC[n+]1cc3c(OC)c(OC)ccc3cc1-2 [jatrorrhizine]"
u = "h"
measured = 52.9


###

- PROTOCOL_TEXT: Toxicokinetics test in the satellite groups (UPLC-MS/MS of rat plasma)
- Type: in vivo
- CONDITION_SET: female, SD, rat, plasma, po, female rats, Day 1, lowest dose (berberine 8.01, epiberberine 0.82, coptisine 1.38, palmatine 2.03, jatrorrhizine 0.31, columbamine 0.66 mg/kg); read-out: Cmax mean
Measured Cmax, listed per entry.
MEASURED_QUANTITY: Cmax (ng/mL)

[[record]]
smiles_str = "COc1cc2c(cc1O)CC[n+]1cc3c(OC)c(OC)ccc3cc1-2"
measured = 11

[[record]]
smiles_str = "COc1cc2c(cc1O)-c1cc3ccc(OC)c(OC)c3c[n+]1CC2"
measured = 30

